Could you please report measured pIC50 for the items listed next?
- TARGET SYSTEM: 5-HT2C edited (accession number AAF35842.1) (Homo sapiens, UniProt P28335, I156V/I160V/N158S)
- Sequence (P28335 33-458 I156V/N158S/I160V limits assumed): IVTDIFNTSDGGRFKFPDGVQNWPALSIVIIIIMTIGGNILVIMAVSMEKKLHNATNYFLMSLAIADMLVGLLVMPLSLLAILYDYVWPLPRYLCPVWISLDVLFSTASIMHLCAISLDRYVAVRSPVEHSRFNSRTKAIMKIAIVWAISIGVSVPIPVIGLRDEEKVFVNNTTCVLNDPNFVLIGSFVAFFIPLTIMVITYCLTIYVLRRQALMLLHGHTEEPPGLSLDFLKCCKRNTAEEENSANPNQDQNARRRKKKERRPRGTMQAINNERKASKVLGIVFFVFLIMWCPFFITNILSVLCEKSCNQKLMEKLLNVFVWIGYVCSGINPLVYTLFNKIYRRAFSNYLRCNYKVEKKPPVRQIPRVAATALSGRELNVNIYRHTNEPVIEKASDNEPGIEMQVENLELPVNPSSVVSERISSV
- ASSAY: biochemical
pIC50: −log10 of the molar value.

Returns the measured pIC50 for the input compound. Input: CN1CCc2[nH]c3c(OCc4ccccc4)cccc3c2CC1 [Compound 28]
6.00 to 7.00

Next entry: CN1CCc2c(n(C)c3cc(OCc4ccc(F)cc4)ccc23)CC1 [Compound 10]
6.00 to 7.00

Next entry: CN1CCc2c(n(C)c3cc(Oc4ccccc4)ccc23)CC1 [Compound 14]
6.00 to 7.00

Next entry: CN1CCc2[nH]c3cccc(Oc4ccc(F)cc4)c3c2CC1 [Compound 22]
7.00 to 8.00

Next entry: CN1CCc2[nH]c3cccc(OCc4ccccc4)c3c2CC1 [Compound 2]
> 8.00
